All values here come from ChEMBL document CHEMBL1134432.

Target: 5-hydroxytryptamine receptor 2A (Rattus norvegicus)
Sequence (P14842 whole entry): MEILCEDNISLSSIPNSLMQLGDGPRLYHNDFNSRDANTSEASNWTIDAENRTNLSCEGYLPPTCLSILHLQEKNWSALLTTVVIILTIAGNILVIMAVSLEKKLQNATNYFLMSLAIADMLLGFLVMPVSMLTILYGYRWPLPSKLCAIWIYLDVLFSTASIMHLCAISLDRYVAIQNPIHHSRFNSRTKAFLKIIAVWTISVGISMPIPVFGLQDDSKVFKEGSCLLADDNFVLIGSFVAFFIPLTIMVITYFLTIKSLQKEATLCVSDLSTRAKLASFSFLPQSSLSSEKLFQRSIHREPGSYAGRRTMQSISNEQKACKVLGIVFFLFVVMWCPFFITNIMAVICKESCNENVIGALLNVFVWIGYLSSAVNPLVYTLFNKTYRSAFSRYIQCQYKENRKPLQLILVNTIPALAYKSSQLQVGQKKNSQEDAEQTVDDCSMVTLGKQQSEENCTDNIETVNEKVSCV
outcome-measure: pKi
FYI, pKi means -log10 of a concentration in mol per litre.

Can you look up pKi on 5-hydroxytryptamine receptor 2A (Rattus norvegicus) for "COc1ccc2[nH]cc(CCN3CCCC3)c2c1F" ?
6.89
